Provenance of the data: patent US20260297081A1

# STUDY TARGET: CDK4 (Homo sapiens, UniProt P11802+Q16531)
# Sequence (P11802 2-303 limits assumed): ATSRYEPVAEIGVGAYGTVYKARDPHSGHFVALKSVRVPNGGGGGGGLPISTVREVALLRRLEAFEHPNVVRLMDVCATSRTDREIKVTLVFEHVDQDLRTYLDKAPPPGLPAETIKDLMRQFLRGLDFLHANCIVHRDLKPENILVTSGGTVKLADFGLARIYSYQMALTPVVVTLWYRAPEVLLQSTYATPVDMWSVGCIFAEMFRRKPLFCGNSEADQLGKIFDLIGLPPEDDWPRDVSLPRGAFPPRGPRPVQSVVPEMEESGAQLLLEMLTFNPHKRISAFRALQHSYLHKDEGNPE
# Sequence (P24385 whole entry partner): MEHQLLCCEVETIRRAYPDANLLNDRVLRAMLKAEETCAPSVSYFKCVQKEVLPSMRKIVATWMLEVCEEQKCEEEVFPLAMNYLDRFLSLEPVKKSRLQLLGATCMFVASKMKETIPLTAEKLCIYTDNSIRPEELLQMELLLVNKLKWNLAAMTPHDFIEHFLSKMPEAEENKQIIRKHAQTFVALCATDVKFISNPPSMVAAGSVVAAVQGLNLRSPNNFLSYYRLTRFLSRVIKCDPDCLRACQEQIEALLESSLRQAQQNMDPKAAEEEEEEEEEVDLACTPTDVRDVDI
# Sequence (Q16531 2-1140 limits assumed): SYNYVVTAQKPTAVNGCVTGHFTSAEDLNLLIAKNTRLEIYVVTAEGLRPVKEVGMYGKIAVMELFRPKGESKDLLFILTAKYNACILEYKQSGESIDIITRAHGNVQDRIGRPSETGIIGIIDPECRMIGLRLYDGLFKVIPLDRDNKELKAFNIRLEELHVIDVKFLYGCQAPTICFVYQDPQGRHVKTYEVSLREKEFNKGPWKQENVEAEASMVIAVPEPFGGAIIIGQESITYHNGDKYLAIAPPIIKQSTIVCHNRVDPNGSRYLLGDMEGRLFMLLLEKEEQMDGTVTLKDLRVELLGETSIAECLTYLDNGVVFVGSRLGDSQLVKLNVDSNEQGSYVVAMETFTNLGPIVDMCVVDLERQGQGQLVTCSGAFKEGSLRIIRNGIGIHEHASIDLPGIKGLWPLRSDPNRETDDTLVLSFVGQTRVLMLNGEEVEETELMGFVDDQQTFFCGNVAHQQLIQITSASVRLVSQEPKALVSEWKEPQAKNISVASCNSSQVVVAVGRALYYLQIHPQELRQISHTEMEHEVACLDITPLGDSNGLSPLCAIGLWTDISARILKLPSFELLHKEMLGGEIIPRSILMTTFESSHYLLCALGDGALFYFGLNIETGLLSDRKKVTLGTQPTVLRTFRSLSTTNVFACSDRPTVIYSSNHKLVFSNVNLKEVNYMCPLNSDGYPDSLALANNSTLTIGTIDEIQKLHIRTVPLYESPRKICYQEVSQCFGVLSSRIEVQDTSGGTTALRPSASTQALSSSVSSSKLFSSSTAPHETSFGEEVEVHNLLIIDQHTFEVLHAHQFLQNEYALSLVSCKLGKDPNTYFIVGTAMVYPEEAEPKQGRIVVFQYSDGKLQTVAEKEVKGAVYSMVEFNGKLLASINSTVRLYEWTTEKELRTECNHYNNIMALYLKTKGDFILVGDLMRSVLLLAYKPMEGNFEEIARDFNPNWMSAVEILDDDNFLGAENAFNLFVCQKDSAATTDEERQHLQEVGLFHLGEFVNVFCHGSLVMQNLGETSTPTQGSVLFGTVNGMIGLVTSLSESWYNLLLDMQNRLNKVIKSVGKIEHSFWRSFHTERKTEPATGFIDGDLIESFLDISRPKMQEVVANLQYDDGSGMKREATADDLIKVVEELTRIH
# METHOD NOTES: CDK4 percentage degradation in Calu-1 cells (Table 6)
# Type: cell-based
# Design: Cells that express cyclin D1-3 and CDK4/6 proteins were treated with heterobifunctional compounds; endogenous in cells; host or cells: Calu-1
# STATED CONDITIONS: 200 nM, 16 hours
MEASUREMENT TYPE: inhibition at 0.2 µM

Example entries begin here.
MOLECULE	inhibition at 0.2 µM
CCc1ccc(C(=O)Nc2ccc(N(C)C)nn2)c(NCCCCCNC(=O)CN2CCN(c3ccc(Nc4ncc5c(C)c(C(C)=O)c(=O)n(C6CCCC6)c5n4)nc3)CC2)n1	50 to 80%
[2H]C([2H])([2H])Nc1ccc(C(=O)Nc2ccc(N(C)C)nn2)c(NC2CC3(C2)CN(C(=O)CC(N2CCN(c4ccc(Nc5ncc6c(C)c(C(C)=O)c(=O)n(C7CCCC7)c6n5)nc4)CC2)C(F)(F)F)C3)n1 (centres unmarked)	< 30%
CNc1ccc(C(=O)Nc2cc(C)n(C)n2)c(NC[C@H]2CC[C@H](NC(=O)CN3CCN(c4ccc(Nc5ncc6c(C)c(C(C)=O)c(=O)n(C7CCCC7)c6n5)nc4)CC3)CC2)n1	50 to 80%
CNc1ccc(C(=O)Nc2ccc(=O)[nH]n2)c(NCCCCCNC(=O)CN2CCN(c3ccc(Nc4ncc5c(C)c(C(C)=O)c(=O)n(C6CCCC6)c5n4)nc3)CC2)n1	< 30%

As a next step, examine the molecule that follows.
For CNc1ccc(C(=O)Nc2ccc(N(C)C)nn2)c(NC[C@H]2CC[C@H](CNC(=O)N3CCN(c4ccc(Nc5ncc6c(C)c(C(C)=O)c(=O)n(C7CCCC7)c6n5)nc4)CC3)CC2)n1 the molecule record lists inhibition at 0.2 µM as 30 to 50%

---

# STUDY TARGET: CDK4 (Homo sapiens, UniProt P11802+Q16531)
# METHOD NOTES: CDK4 percentage degradation in Calu-1 cells (Table 6)
# Assay type: cell-based
# Set-up: Cells that express cyclin D1-3 and CDK4/6 proteins were treated with heterobifunctional compounds; endogenous in cells; host or cells: Calu-1
# STATED CONDITIONS: 200 nM, 16 hours
MEASUREMENT TYPE: inhibition at 0.2 µM

MOLECULE	inhibition at 0.2 µM
CNc1ccc(C(=O)Nc2ccc(N(C)C)nn2)c(NC2CN(CCNC(=O)CN3CCN(c4ccc(Nc5ncc6c(C)c(C(C)=O)c(=O)n(C7CCCC7)c6n5)nc4)CC3)C2)n1	< 30%

For CNc1ccc(C(=O)Nc2ccc(N(C)C)nn2)c(NC2CC3(CC(CC(=O)N4CCN(c5ccc(Nc6ncc7c(C)c(C(C)=O)c(=O)n(C8CCCC8)c7n6)nc5)CC4)C3)C2)n1 (centres unmarked) the molecule record lists inhibition at 0.2 µM as 50 to 80%

For CNc1ccc(C(=O)Nc2ccc(C)nn2)c(NCCCCCNC(=O)CN2CCN(c3ccc(Nc4ncc5c(C)c(C(C)=O)c(=O)n(C6CCCC6)c5n4)nc3)CC2)n1 the molecule record lists inhibition at 0.2 µM as 50 to 80%

For CNc1ccc(C(=O)Nc2cc(C)[nH]n2)c(NC2CC3(CC(NC(=O)CN4CCN(c5ccc(Nc6ncc7c(C)c(C(C)=O)c(=O)n(C8CCCC8)c7n6)nc5)CC4)C3)C2)n1 (centres unmarked) the molecule record lists inhibition at 0.2 µM as < 30%

For CNc1ccc(C(=O)Nc2ccc(N(C)C)nn2)c(N(C)CCCCCNC(=O)CN2CCN(c3ccc(Nc4ncc5c(C)c(C(C)=O)c(=O)n(C6CCCC6)c5n4)nc3)CC2)n1 the molecule record lists inhibition at 0.2 µM as < 30%

---

List of inhibition at 0.2 µM values.
# STUDY TARGET: CDK4 (Homo sapiens, UniProt P11802+Q16531)
# METHOD NOTES: CDK4 percentage degradation in Calu-1 cells (Table 6)
# Type: cell-based
# Parameters: Cells that express cyclin D1-3 and CDK4/6 proteins were treated with heterobifunctional compounds; endogenous in cells; host or cells: Calu-1
# STATED CONDITIONS: 200 nM, 16 hours

Example entries begin here.
COMPOUND	RESULT
CC(=O)c1c(C)c2cnc(Nc3ccc(N4CCN(CCC(=O)N5CCC(Nc6nc(NC(C)C)ccc6C(=O)Nc6ccc(N(C)C)nn6)CC5)CC4)cn3)nc2n(C2CCCC2)c1=O	< 30%
CNc1ccc(C(=O)Nc2ccc(N(C)C)nn2)c(NC2CC(NC(=O)N3CCN(c4ccc(Nc5ncc6c(C)c(C(C)=O)c(=O)n(C7CCCC7)c6n5)nc4)CC3)C2)n1 (stereo not drawn)	> 80%

For CNc1ccc(C(=O)Nc2ccc(N(C)C)nn2)c(N[C@H]2CC[C@H](NC(=O)CCN3CCN(c4ccc(Nc5ncc6c(C)c(C(C)=O)c(=O)n(C7CCCC7)c6n5)nc4)CC3)CC2)n1 the compound record lists inhibition at 0.2 µM as 50 to 80%

---

# STUDY TARGET: CDK4 (Homo sapiens, UniProt P11802+Q16531)
# METHOD NOTES: CDK4 percentage degradation in Calu-1 cells (Table 6)
# Assay type: cell-based
# Design: Cells that express cyclin D1-3 and CDK4/6 proteins were treated with heterobifunctional compounds; endogenous in cells; host or cells: Calu-1
# STATED CONDITIONS: 200 nM, 16 hours
MEASUREMENT TYPE: inhibition at 0.2 µM

MOLECULE	RESULT
CNc1ccc(C(=O)Nc2cn(C)cn2)c(NC2CC3(CC(NC(=O)CN4CCN(c5ccc(Nc6ncc7c(C)c(C(C)=O)c(=O)n(C8CCCC8)c7n6)nc5)CC4)C3)C2)n1 (centres unmarked) [CPD-152]	50 to 80%
CC(=O)c1c(C)c2cnc(Nc3ccc(N4CCN(CC(=O)NCCC5CC(Nc6nc(C7CC7)ccc6C(=O)Nc6ccc(C)c(C7CC7)n6)C5)CC4)cn3)nc2n(C2CCCC2)c1=O (centres unmarked) [CPD-45]	< 30%
CNc1ccc(C(=O)Nc2cc(C(C)C)on2)c(NC2CC3(CC(NC(=O)CN4CCN(c5ccc(Nc6ncc7c(C)c(C(C)=O)c(=O)n(C8CCCC8)c7n6)nc5)CC4)C3)C2)n1 (centres unmarked) [CPD-227]	< 30%

Form: item CNc1ccc(C(=O)Nc2cccc(C)n2)c(NC2CC3(C2)CN(C(=O)CCN2CCN(c4ccc(Nc5ncc6c(C)c(C(C)=O)c(=O)n(C7CCCC7)c6n5)nc4)CC2)C3)n1 [CPD-155] ; test system CDK4 (Homo sapiens, UniProt P11802+Q16531); inhibition at 0.2 µM: > 80%

Form: item CNc1ccc(C(=O)Nc2ccc(N(C)C)nn2)c(NCCCCC(=O)NCCN2CCN(c3ccc(Nc4ncc5c(C)c(C(C)=O)c(=O)n(C6CCCC6)c5n4)nc3)CC2)n1 [CPD-36] ; test system CDK4 (Homo sapiens, UniProt P11802+Q16531); inhibition at 0.2 µM: 50 to 80%

---

List of IC50 values.
# Tested on: T47D cells
# METHOD NOTES: Anti-proliferation (viability) of ER+ breast cancer T47D cells, 6 days (Table 7, FIG. 2B)
# Type: cell-based
# STATED CONDITIONS: Homo sapiens, 144 h; T47D cells, 6 days, 10-point serial dilution; read-out: GI IC50 in T47D

Example entries begin here.
COMPOUND	RESULT
CC(=O)c1c(C)c2cnc(Nc3ccc(N4CCN(CC(=O)NCCCCCCCNc5nc(C)ccc5C(=O)Nc5ccc(N(C)C)nn5)CC4)cn3)nc2n(C2CCCC2)c1=O [CPD-8]	≤ 50 nM
CC(=O)c1c(C)c2cnc(Nc3ccc(N4CCN(CC(=O)NCCCCCNc5nc(C(C)C)ccc5C(=O)Nc5ccc(N(C)C)nn5)CC4)cn3)nc2n(C2CCCC2)c1=O [CPD-63]	≤ 50 nM

As a next step, examine the compound that follows.
Form: item CNc1ccc(C(=O)Nc2ccc(N(C)C)nn2)c(NCCCCCCCNC(=O)CN2CCN(c3ccc(Nc4ncc5c(C)c(C(C)=O)c(=O)n(C6CCCC6)c5n4)nc3)CC2)n1 [CPD-10] ; test system T47D cells; IC50: ≤ 50 nM

---

# STUDY TARGET: CDK4 (Homo sapiens, UniProt P11802+Q16531)
# METHOD NOTES: CDK4 percentage degradation in Calu-1 cells (Table 6)
# Assay type: cell-based
# Design: Cells that express cyclin D1-3 and CDK4/6 proteins were treated with heterobifunctional compounds; endogenous in cells; host or cells: Calu-1
# STATED CONDITIONS: 200 nM, 16 hours
MEASUREMENT TYPE: inhibition at 0.2 µM

Example entries begin here.
MOLECULE	STUDY TARGET	MEASUREMENT TYPE	RESULT
CNc1ccc(C(=O)Nc2ccc(N(C)C)nn2)c(NC2CC3(CC(NC(=O)N4CCN(c5ccc(Nc6ncc7c(C)c(C(C)=O)c(=O)n(C8CCCC8)c7n6)nc5)CC4)C3)C2)n1 (stereo not drawn)	CDK4 (Homo sapiens, UniProt P11802+Q16531)	inhibition at 0.2 µM	30 to 50%
CC(=O)c1c(C)c2cnc(Nc3ccc(N4CCN(CC(=O)NCCC5CC(Nc6cc(Cl)ccc6C(=O)Nc6ccc(N(C)C)nn6)C5)CC4)cn3)nc2n(C2CCCC2)c1=O (stereo not drawn)	CDK4 (Homo sapiens, UniProt P11802+Q16531)	inhibition at 0.2 µM	30 to 50%

For [2H]C([2H])([2H])Nc1ccc(C(=O)Nc2ccc(N(C)C)nn2)c(NC2CC3(C2)CN(C(=O)CN2CCC4(CCN(c5ccc(Nc6ncc7c(C)c(C(C)=O)c(=O)n(C8CCCC8)c7n6)nc5)C4)C2)C3)n1 (stereo not drawn) the molecule record lists inhibition at 0.2 µM as < 30%
